- SYSTEM_UNDER_TEST: activated protein C (APC) (human)
No end group written: not given here.
The label depends only on Inhibition of APC (%), Xa-1 stage coagulation assay in NHP, 500 µM peptide: class 1 if it is at least 40%, class 0 if it is smaller.

Answered examples (3):
KLGDDLLQCHPAVKF-NH2 (also: native Cys substituted by Ser or Gly, which position not given here) [synthetic peptide PC125-139]; class 0
HPAVKFPCGRPWKRM-NH2 (also: native Cys substituted by Ser or Gly, which position not given here) [synthetic peptide PC134-148]; class 1
GRPWKRMEKKRSHLC-NH2 [synthetic peptide PC142-155 with an additional carboxy-terminal cysteine]; class 1

Next, consider the following binder.
Qu. Evaluate APGYKLGDDLLQCHP-NH2 (also: native Cys substituted by Ser or Gly, which position not given here) [synthetic peptide PC121-135] : Inhibition of APC (%), Xa-1 stage coagulation assay in NHP, 500 µM peptide at minimum 40%?
Ans. class 0
